Molecular target: T1, native human ApoC3 (human, UniProt P02656 21-99, biotinylated in the captured-antigen assays (Tables 6 and 8); sites not stated)
T1 construct: also called nhuApoC3; native huApoC3
T1 sequence (P02656 21-99): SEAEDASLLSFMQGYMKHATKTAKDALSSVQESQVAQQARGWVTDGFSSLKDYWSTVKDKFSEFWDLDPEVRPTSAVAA
Test: SPR, biotinylated antigen captured on streptavidin chip, IgG as analyte, pH 7.4
MEASUREMENT LABEL: kon (M⁻¹ s⁻¹)
# output: bare number, implied unit M⁻¹ s⁻¹

The following binders have reported results that may help.
binder="5E5 WT IgG (antibody, V domains shown, Full-length IgG captured by an anti-human Fc antibody) VH: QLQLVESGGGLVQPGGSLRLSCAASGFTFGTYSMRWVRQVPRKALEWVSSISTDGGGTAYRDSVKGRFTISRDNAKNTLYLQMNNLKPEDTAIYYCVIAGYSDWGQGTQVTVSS VL: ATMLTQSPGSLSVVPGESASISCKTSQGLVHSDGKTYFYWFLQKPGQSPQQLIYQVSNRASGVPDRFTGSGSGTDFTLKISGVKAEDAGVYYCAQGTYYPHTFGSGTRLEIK" readout_number=350000
binder="29A06 IgG (antibody, V domains shown) VH: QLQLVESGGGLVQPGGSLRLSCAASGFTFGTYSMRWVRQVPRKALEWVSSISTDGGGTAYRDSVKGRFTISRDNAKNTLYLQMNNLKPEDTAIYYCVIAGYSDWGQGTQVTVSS VL: DVVLTQTPGSLSVVPGESASISCKASQNLVHSNGKTYLYWLLQKPGQSPQRLIYQVSNRGSEVPDRFTGSGSGTDFTLKISGVKAEDAGVYYCAQGTYWPKTFGQGTKLEIK" readout_number=960000
binder="29A05 IgG (antibody, V domains shown) VH: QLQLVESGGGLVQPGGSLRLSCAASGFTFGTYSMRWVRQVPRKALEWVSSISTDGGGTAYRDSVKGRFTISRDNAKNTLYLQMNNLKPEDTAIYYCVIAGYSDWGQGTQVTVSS VL: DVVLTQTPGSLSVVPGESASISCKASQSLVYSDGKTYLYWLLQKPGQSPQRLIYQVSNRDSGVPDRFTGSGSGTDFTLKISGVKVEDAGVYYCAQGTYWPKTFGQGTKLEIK" readout_number=500000
binder="29G11 IgG (antibody, V domains shown) VH: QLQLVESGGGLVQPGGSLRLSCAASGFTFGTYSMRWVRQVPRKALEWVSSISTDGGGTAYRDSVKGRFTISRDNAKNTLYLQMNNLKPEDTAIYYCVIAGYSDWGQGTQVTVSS VL: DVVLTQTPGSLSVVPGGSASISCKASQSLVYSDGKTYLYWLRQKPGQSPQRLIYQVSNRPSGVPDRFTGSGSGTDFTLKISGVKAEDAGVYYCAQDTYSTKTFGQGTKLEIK" readout_number=1.38e+06
binder="30D10 IgG (antibody, V domains shown) VH: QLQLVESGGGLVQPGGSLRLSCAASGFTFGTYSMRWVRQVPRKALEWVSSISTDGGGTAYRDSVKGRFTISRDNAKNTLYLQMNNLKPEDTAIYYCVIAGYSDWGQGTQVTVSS VL: DVVLTQTPGSLSVVPGESASISCTASQSLRHSDGRTYLYWLRQKPGQSPQRLIKRVSTRDPGVPDRFTGSGSGTDFTLKISGVRAEDAGVYYCAQGTYYPLTFGQGTKVELK" readout_number=1.29e+06

Let us examine a further case.
Prompt: GET /values?readout=kon&item= 29G02 IgG (antibody, V domains shown) VH: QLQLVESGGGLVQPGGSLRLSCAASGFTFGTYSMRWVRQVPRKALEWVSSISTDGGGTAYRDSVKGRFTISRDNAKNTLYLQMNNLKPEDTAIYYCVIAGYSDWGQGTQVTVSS VL: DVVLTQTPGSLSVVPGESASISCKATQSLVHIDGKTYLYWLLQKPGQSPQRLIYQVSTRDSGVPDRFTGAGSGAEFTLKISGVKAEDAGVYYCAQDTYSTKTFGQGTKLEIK
Completion: 1.31e+06
